Reported values: MIC90 for S. aureus UC-76 SA-1, one per item.
reported property: MIC90 (µg/mL)

Here's what some known entries look like.
| molecular string | reported property | quantitative readout |
| --- | --- | --- |
| CNC(=O)[C@H]1CN(c2ccc3c(c2)CC(=O)N3CC(C)C)C(=O)O1 | MIC90 | 64 |
| NC(=O)[C@H]1CN(c2ccc3c(c2)CC(=O)N3CCF)C(=O)O1 | MIC90 | 4 |
| CCCN1C(=O)Cc2cc(N3C[C@H](C(N)=O)OC3=O)cc(F)c21 | MIC90 | 4 |

I = CCN1C(=O)Cc2cc(N3C[C@H](C(=O)NC)OC3=O)ccc21
II = CNC(=O)[C@H]1CN(c2ccc3c(c2)CC(=O)N3C(C)C)C(=O)O1
Query: Of I and II , whose reported MIC90 is the larger number? Pick one and reply with its label.
Result: II
(II: 8 µg/mL, I: 4 µg/mL)

---

Test system: S. aureus UC-76 SA-1
Test: in vitro antibacterial activity (MIC, NCCLS dilution)
Type: cell-based
Settings: Staphylococcus aureus, UC76
Excerpt: […]
reported property: MIC90 (µg/mL)

Observe how each entry below is paired with its result.
| compound | value units | MIC90 |
| --- | --- | --- |
| NC(=O)[C@H]1CN(c2ccc3c(c2)CC(=O)N3C2CCC2)C(=O)O1 | µg/mL | 32 |
| CCC(C)N1C(=O)Cc2cc(N3C[C@H](C(=O)NC)OC3=O)ccc21 (stereo partly drawn) | µg/mL | 8 |
| CC(C)N1C(=O)Cc2cc(N3C[C@H](C(N)=O)OC3=O)ccc21 | µg/mL | 4 |

I = CCN1C(=O)Cc2cc(N3C[C@H](C(N)=O)OC3=O)ccc21
II = CC(C)CN1C(=O)Cc2cc(N3C[C@H](C(N)=O)OC3=O)ccc21
Query: // task: argmin of MIC90 over [ I , II ] Write down the label of the entry you select.
Result: I
(I: 4 µg/mL, II: 64 µg/mL)

---

List of MIC90 tested on S. aureus UC-76 SA-1.
reported property: MIC90 (µg/mL)

Use these answered entries as a reference point.
| compound | reported property | value units | quantitative readout |
| --- | --- | --- | --- |
| NC(=O)[C@H]1CN(c2ccc3c(c2)CC(=O)N3C2CC2)C(=O)O1 [Example 11] | MIC90 | µg/mL | 8 |
| CC(C)N1C(=O)Cc2cc(N3C[C@H](C(N)=O)OC3=O)cc(F)c21 [Example 10] | MIC90 | µg/mL | 4 |
| CCC(C)N1C(=O)Cc2cc(N3C[C@H](C(N)=O)OC3=O)ccc21 (stereo partly drawn) [Example 17] | MIC90 | µg/mL | 4 |
| CC(C)(C)N1C(=O)Cc2cc(N3C[C@H](C(N)=O)OC3=O)ccc21 [Example 16] | MIC90 | µg/mL | 8 |

I = CNC(=O)[C@H]1CN(c2ccc3c(c2)CC(=O)N3C)C(=O)O1 [Example 2]
II = CNC(=O)[C@H]1CN(c2ccc3c(c2)CC(=O)N3CCF)C(=O)O1 [Example 7]
Query: Could you check which of I and II has a smaller value for MIC90? Refer to your chosen item by its label in the answer.
Result: I

---

S. aureus UC-76 SA-1: recorded MIC90 for assorted compounds
reported property: MIC90 (µg/mL)

| compound | reported property | quantitative readout |
| --- | --- | --- |
| CCCN1C(=O)Cc2cc(N3C[C@H](C(N)=O)OC3=O)ccc21 [Example 13] | MIC90 | 4 |

I = CCCN1C(=O)Cc2cc(N3C[C@H](C(=O)NC)OC3=O)ccc21 [Example 14]
II = CN1C(=O)Cc2cc(N3C[C@H](C(N)=O)OC3=O)cc(F)c21 [Example 3]
III = CNC(=O)[C@H]1CN(c2ccc3c(c2)CC(=O)N3C2CC2)C(=O)O1 [Example 12]
Query: Ranking field: MIC90; order: falling. A complete answer lists every label in the requested sequence.
Result: II, III, I

---

Test system: S. aureus UC-76 SA-1
Experiment: in vitro antibacterial activity (MIC, NCCLS dilution)
Format: cell-based
Conditions: Staphylococcus aureus, UC76
reported property: MIC90 (µg/mL)

I = CNC(=O)[C@H]1CN(c2ccc3c(c2)CC(=O)N3C2CCC2)C(=O)O1
II = CN1C(=O)Cc2cc(N3C[C@H](C(N)=O)OC3=O)ccc21
III = CC(CF)N1C(=O)Cc2cc(N3C[C@H](C(N)=O)OC3=O)ccc21 (stereo partly drawn)
Query: hey, can you rank those compounds up there by MIC90? biggest number first please Labels, ranked as asked.
Result: I, III, II
(I: 16 µg/mL, III: 4 µg/mL, II: 2 µg/mL)
